As shown below, each of these variants has a reported abundance fitness value.
B1: Pituitary-specific positive transcription factor 1, residues 130 to 198; numbered along this chain, P28069 (parent)
chain: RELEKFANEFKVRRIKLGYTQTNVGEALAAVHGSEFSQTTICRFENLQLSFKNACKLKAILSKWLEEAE

# Variants of: B1
# method_summary: abundance fitness (aPCA) (normalised: wild type 0, dead -1); higher = more abundant; growth selection in yeast, the domain comes from the species named
# details: Homo sapiens

Noted for F36K : its abundance fitness reads -0.744

Noted for I60F : its abundance fitness reads -0.725

Noted for S50G : its abundance fitness reads 0.035

Noted for S37C : its abundance fitness reads -0.281

Noted for V12Y : its abundance fitness reads -0.295

Noted for V24N : its abundance fitness reads -0.581

Noted for T39G : its abundance fitness reads -0.13

Noted for R13W : its abundance fitness reads -0.733

Noted for F51E : its abundance fitness reads 0.144

Noted for G25V : its abundance fitness reads 0.085

Noted for C42T : its abundance fitness reads -0.02
